Experiment: CEETOX_H295R_OHPROG: CeeTox H295R High-throughput Steroidogenesis Assay for OH-Progesterone (OHPROG) (AID 2283435)
Settings: actives raise or lower the signal
Activity calls are given as the source filed them. Rule for the calls: active = hit-call score of the fitted dose curve at least 0.9, where 1 is the maximum; inactive = score below 0.9.
Choose the fitting class; nothing outside active, inactive is accepted.

Query :: Per the assay record, what outcome was assigned to O=C(Nc1ccc2[nH]ccc2c1)c1cc2cc(F)ccc2n1Cc1cccc(F)c1 ?
Result :: active

Query :: Which result was noted for this compound in the test: CC(C)OC(=O)Nc1ccccc1
Result :: inactive

Query :: What did the test return for C=CC(=O)N(C)C ?
Result :: inactive

Query :: Record lookup: outcome of this test for CCOP(=S)(OCC)SCCS(=O)(=O)CC ?
Result :: active

Query :: Field: outcome | Entry: O=C(Cc1ccccc1)c1ccccc1
Result :: active

Query :: What outcome does the record of this test show for C1CCC(NC2CCCCC2)CC1 ?
Result :: inactive

Query :: What call does the record list for Nc1ccc(-c2ccc(N)c(Cl)c2)cc1Cl ?
Result :: inactive

Query :: What is the recorded call for this compound in the test? NNC(=S)NN
Result :: active

Query :: Called result for C[C@]12CC[C@H](O)CC1=CC[C@@H]1[C@@H]2CC[C@]2(C)C(=O)CC[C@@H]12
Result :: active

Query :: Please share the test call associated with C[C@@H]1C[C@@H]([C@H](O)CC2CC(=O)NC(=O)C2)C(=O)[C@@H](C)C1 .
Result :: inactive

Query :: I'd appreciate the recorded outcome for CN(CCCC(=O)c1cccnc1)N=O from this test.
Result :: inactive

Query :: // param item: COP(=O)(OC)O/C(=C\Cl)c1cc(Cl)c(Cl)cc1Cl ; yields the recorded call
Result :: inactive

Query :: Could you check what this test reported for CC12CC1(C)C(=O)N(c1cc(Cl)cc(Cl)c1)C2=O (stereo not drawn) ?
Result :: active

----------
Read-out: Urokinase-type plasminogen activator receptor (uPAR), PLAUR (gene 5329)
Assay: BSK_4H_uPAR: BioMAP Diversity Plus: 4H Assay for Urokinase-type plasminogen activator receptor (uPAR) Biomarker Activity (AID 2283030)
Details: primary human endothelial cells (HUVEC); actives raise or lower the signal
Active and inactive are the calls of the source. How the source made its calls: active means hit-call score of the fitted dose curve at least 0.9, where 1 is the maximum; inactive means score below 0.9.
Pick one and only one: T = active, F = inactive

Query :: I'd appreciate the recorded outcome for CCSC(C)CC1CC(=O)C(C(CC)=NOC/C=C/Cl)=C(O)C1 (stereo not drawn) from this test.
Result :: F

Query :: Dear colleague, could you share the recorded outcome for CC(C)(c1ccccc1)c1ccc(O)c(C(C)(C)c2ccccc2)c1 when you have a moment?
Result :: T

Query :: Record lookup: outcome of this test for COC[C@H](C)N(C(=O)CCl)c1c(C)csc1C ?
Result :: F

Query :: I would be grateful if you could indicate the recorded call for ClCC(Cl)CCl .
Result :: F

Query :: I would be grateful if you could indicate the recorded call for ClC(Cl)=C(Cl)C(Cl)=C(Cl)Cl .
Result :: T

Query :: # lookup: test call for O=c1[nH]c(=O)[nH]c(=O)[nH]1
Result :: F

Query :: Could you kindly confirm the outcome this assay logged for O=Cc1cccc(Oc2ccccc2)c1 ?
Result :: F

Query :: Query: recorded result category for O=[N+]([O-])c1ccc(O)c([N+](=O)[O-])c1 in this test
Result :: F

Query :: Write down the call the test reported for this compound. Item: O=C(OC1CCCCC1)c1ccccc1C(=O)OC1CCCCC1
Result :: T

Query :: Look up the recorded call for CC(=O)[O][Hg][c]1ccccc1 in this test.
Result :: T

Query :: Name the outcome recorded for ClC1(Cl)C2(Cl)C3(Cl)C4(Cl)C(Cl)(Cl)C5(Cl)C3(Cl)C1(Cl)C5(Cl)C24Cl (stereo not drawn) in the assay.
Result :: F

Query :: Recorded call for Nc1cccc2ccccc12 ?
Result :: F

Query :: Lab log entry: CCNc1nc(NC(C)(C)C)nc(SC)n1 — outcome as called in the assay?
Result :: F
